# Test system: A673 NR0B1-luciferase reporter, viability-normalised luminescence
# protocol: suppressors of NR0B1-promoter luciferase reporter, dose response, EWS/Fli inhibitor project, luciferase luminescence, A673 cells, cherry-pick (AID 686920)
measured.metric: AC35

{"structure.as.smiles": "CCOC(=O)[C@]12Cc3ccc(C)cc3[C@H]1N(C1CCCCC1)C(=O)c1ccccc12", "AC35": "5.49 µM"}

Quick one: AC35 for "C[C@@H]1CN([C@H](C)CO)S(=O)(=O)c2ccc(C#Cc3ccncc3)cc2O[C@@H]1CN(C)C(=O)Nc1ccc2c(c1)OCO2" ? 24.5 µM

Quick one: AC35 for "O=C1Nc2cc(C(=O)NCCN3CCCCCC3)ccc2S/C1=C\c1ccccc1" ? 11.6 µM

Quick one: AC35 for "CCCNC(=O)N1[C@H](C#N)[C@H](c2ccc(C#Cc3ccc(F)cc3)cc2)[C@H]1CO" ? 10.1 µM

Quick one: AC35 for "COc1ccc(S(=O)(=O)N2CCCc3nc(-c4ccc(F)cc4)ccc32)cc1" ? 4.87 µM

Quick one: AC35 for "Cc1cccc(/C=C(\c2nc3ccccc3[nH]2)S(=O)(=O)c2ccccc2)c1" ? 5.46 µM

Quick one: AC35 for "N#C[C@@H]1[C@H](c2ccc(C#Cc3ccccc3F)cc2)[C@@H](CO)N1C(=O)c1cccnc1" ? 5.46 µM

Quick one: AC35 for "CC(C)N1C/C(=C/c2ccsc2)C(=O)/C(=C/c2ccsc2)C1" ? 5.52 µM

Quick one: AC35 for "COc1cccc(-c2cc(NC=O)c3ncc(-c4ccc(C(C)=O)cc4)n3c2)c1" ? 6.25 µM

Quick one: AC35 for "C=C1C(=O)[C@@]23[C@H](O)C[C@@H]4C(C)(C)CC[C@H](O)[C@@]4(C)[C@@H]2CC[C@@H]1[C@H]3O" ? 9.06 µM

Quick one: AC35 for "C[C@@H]1CCCCO[C@@H](CN(C)C(=O)Cc2ccccc2)[C@@H](C)CN([C@@H](C)CO)C(=O)c2cc(NS(=O)(=O)c3ccc(F)cc3)ccc2O1" ? 43.9 µM

Quick one: AC35 for "CCN1/C(=C/C(C)=C/c2sc3ccccc3[n+]2CC)Sc2ccccc21" ? 1.56 µM

Quick one: AC35 for "C(=NNc1ccc2ccccc2n1)c1ccccn1" ? 1.55 µM

###

# System: A673 NR0B1-luciferase reporter, viability-normalised luminescence
# protocol: suppressors of NR0B1-promoter luciferase reporter, dose response, EWS/Fli inhibitor project, luciferase luminescence, A673 cells, cherry-pick (AID 686920)
measured.metric: AC35

Guide cases for AC35, answers given:
{"compound": "COC(=O)c1ccccc1-c1c2ccc(=N)cc-2oc2cc(N)ccc12", "measured.metric": "AC35", "reported.value": "2.83 µM"}
{"compound": "COc1ccc(CCCNC(=O)C2Cc3c(-c4ccc5c(c4)OCO5)ccnc3O2)cc1 (stereo not given)", "measured.metric": "AC35", "reported.value": "10.5 µM"}
{"compound": "CC(C)Oc1ccc(Br)cc1C(=O)N/N=C/c1c[nH]c2ccccc12", "measured.metric": "AC35", "reported.value": "17.2 µM"}
{"compound": "Cc1ccc(S(=O)(=O)Nc2ccc3c(c2)C(=O)N([C@H](C)CO)C[C@@H](C)[C@@H](CN(C)Cc2ccc(C(=O)Nc4ccccc4N)cc2)O3)cc1", "measured.metric": "AC35", "reported.value": "9.6 µM"}

Quick one: AC35 for O=C(/C=C/c1ccc(Cl)cc1Cl)N(Cc1ccc(Cl)cc1)C1CCS(=O)(=O)C1 (stereo not given) ? 33.5 µM

Data provenance: PubChem BioAssay AID686920
